Experiment: Quantitative High-Throughput drug screen in 47 multiple myeloma cell lines against the NCATS MIPE library collection: KMM1_JCRB cell viability assay (AID 1918960); further: nearly all actives have a fitted effect of over 30% in size
Details: KMM1 myeloma viability, CellTiter-Glo ATP luminescence, 48 h; series mostly up to 45.8 µM
Text: PI: Beverly A. Mock Ph.D. Laboratory of Cancer Biology and Genetics, Center for Cancer Research, National Cancer Institute, National Institute of Health, Bethesda, Maryland […] 5; Detector; 425V; Luminescence; Viewlux PerkinElmer. […] 1. […] Briefly, the corresponding myeloma cell lines were screened in 1,536-well plates with 500 cells, 5-uL per well for inhibition of cell viability (assessed by measuring ATP levels with CellTiterGlo). […]
Inconclusive results are not listed. Calls of active or inactive are those of the source. The call rests on the fitted dose curve; in most records, active means well fitted cell-killing curve with a large enough effect; inconclusive means small, poorly fitted or top-dose-only effect, or effect the other way; inactive means no such curve, though single readings can be large or run the other way.
Just give me one of these, please: active, inactive

Reference set (4 entries):
                                   molecule  category_label
0    C[Se]CCC(N)C(=O)O (stereo unspecified)        inactive
1  O=C(c1ccccc1)c1ccc2n1CCC2C(=O)O (stereo unspecified)        inactive
2  Nc1ncn([C@H]2C[C@H](O)[C@@H](CO)O2)c(=O)n1          active
3  OC(CN1CCN(c2cccc(Cl)c2)CC1)C(c1ccccc1)c1ccccc1 (stereo unspecified)        inactive

Data request: What call does the record list for C[C@@H](N)C1CCC(C(=O)Nc2ccncc2)CC1 (stereo partly specified) ?
Data returned: inactive

Data request: Hey, what did the test say about Cc1nc2n(c(=O)c1CCN1CCC(c3noc4cc(F)ccc34)CC1)CCCC2 ?
Data returned: inactive

Data request: Identify the outcome logged in this assay for the molecule shown: Cc1ccc(Nc2nccc(N(C)c3ccc4c(C)n(C)nc4c3)n2)cc1S(N)(=O)=O
Data returned: active

* * *

assay: Quantitative High-Throughput drug screen in 47 multiple myeloma cell lines against the NCATS MIPE library collection: XG1_PLB cell viability assay (AID 1919866); conditions: CellTiter-Glo ATP, 48 h; series mostly up to 45.8 µM; further: potency means the concentration at half of the fitted maximal effect; nearly all actives have a fitted effect of over 35% in size
Records with an inconclusive call do not appear. The source made the active and inactive calls. Calls follow the shape of the dose curve; as a rule, active = well fitted cell-killing curve with a large enough effect; inconclusive = small, poorly fitted or top-dose-only effect, or effect the other way; inactive = no such curve, though single readings can be large or run the other way. Non-standard residues stand in square brackets, D forms with d. Residues, ends and D or L forms follow the SMILES beside them. *: point of attachment. Sta = CC(C)C[C@H](N)[C@@H](O)CC(=O)O; Isovaleryl = CC(C)CC(=O)*
Attribute: Potency

Before answering, review these 2 worked examples.
Compound	Potency
COc1cc2c(N3CCN(C(=O)Nc4ccc(OC(C)C)cc4)CC3)ncnc2cc1OCCCN1CCCCC1	13.2 µM (active)
CC(C)CC(=O)N[C@H](C(=O)N[C@H](C(=O)N[C@@H](CC(C)C)[C@@H](O)CC(=O)N[C@@H](C)C(=O)N[C@@H](CC(C)C)[C@@H](O)CC(=O)O)C(C)C)C(C)C (Isovaleryl-VV[Sta]A[Sta]-OH)	16.6 µM (active)

Attention now shifts to the item below.
Entry under test: CC(=O)N1CCN(c2ccc(OC[C@H]3CO[C@](Cn4ccnc4)(c4ccc(Cl)cc4Cl)O3)cc2)CC1 . Its Potency was 13.2 µM (active)

* * *

test system: MKL-1; test: qHTS assay to identify novel small-molecules to repurpose for Merkel cell carcinoma treatment (AID 1296009); conditions: MCC and control cell lines, CellTiter-Glo viability, 72 h; series mostly up to 46 µM; further: nearly all actives have a fitted effect of over 60% in size
Results filed as inconclusive are left out. Activity calls are given as the source filed them. Calls follow the shape of the dose curve; as a rule, active = well fitted inhibition curve with a large enough effect; inconclusive = small, poorly fitted or top-dose-only effect; inactive = flat fitted curve, though single readings scatter.
Classes to choose from: active, inactive

Data request: Test call for this molecule, please: Cc1ccc(Nc2nccc(N(C)c3ccc4c(C)n(C)nc4c3)n2)cc1S(N)(=O)=O
Data returned: inactive
